experiment.notes: inhibitors of TNFa-induced NFkB p65 translocation, primary screen, imaging, HUVEC, MLSMR starter and 10KST1 sets (AID 438);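 note: compound added about 3h40 before a 20 min TNFalpha stimulation; signal is the nuclear over cytoplasmic p65 intensity ratio per well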
protocol.conditions: HUVEC TNFa-induced p65 nuclear translocation; at 2 µM, hits give high values, 0% TNFa-plus-vehicle, 100% no-TNFa wells
Entries and their measured inhibition follow.
Give the value in % but do not write % after it.

- molecule: "COc1cc2c(cc1OC)C(c1ccc(C)o1)CC(=O)N2 (stereo unspecified)"
  result.number: 0
- molecule: "COCCNC(=O)CCc1nc(-c2ccccc2)no1"
  result.number: -5
- molecule: "Cc1ccc(N(C)C(=O)N2CCN(c3ccccn3)CC2)cc1"
  result.number: -0.8
- molecule: "CCCCOc1ccc(C(=O)N2CCC(C)CC2)cc1"
  result.number: 7.9
- molecule: "CC1Cc2ccccc2N1S(=O)(=O)c1cccc(C(=O)OCC(=O)NC2CCS(=O)(=O)C2)c1 (stereo unspecified)"
  result.number: 0.7

Consider the additional molecule presented here.
Please indicate inhibition recorded for `CCn1c(=O)c(C(=O)NCc2ccc(OC)cc2)c(O)c2ccccc21` 12.5
